# Test target: androgen receptor (AdEasy+rAR, L929 cells) (Rattus norvegicus)
# Construct: expressed in transfected cells; host or cells: L929 cells transduced with adenovirus AdEasy+rAR
# Sequence (P15207 whole entry S389L): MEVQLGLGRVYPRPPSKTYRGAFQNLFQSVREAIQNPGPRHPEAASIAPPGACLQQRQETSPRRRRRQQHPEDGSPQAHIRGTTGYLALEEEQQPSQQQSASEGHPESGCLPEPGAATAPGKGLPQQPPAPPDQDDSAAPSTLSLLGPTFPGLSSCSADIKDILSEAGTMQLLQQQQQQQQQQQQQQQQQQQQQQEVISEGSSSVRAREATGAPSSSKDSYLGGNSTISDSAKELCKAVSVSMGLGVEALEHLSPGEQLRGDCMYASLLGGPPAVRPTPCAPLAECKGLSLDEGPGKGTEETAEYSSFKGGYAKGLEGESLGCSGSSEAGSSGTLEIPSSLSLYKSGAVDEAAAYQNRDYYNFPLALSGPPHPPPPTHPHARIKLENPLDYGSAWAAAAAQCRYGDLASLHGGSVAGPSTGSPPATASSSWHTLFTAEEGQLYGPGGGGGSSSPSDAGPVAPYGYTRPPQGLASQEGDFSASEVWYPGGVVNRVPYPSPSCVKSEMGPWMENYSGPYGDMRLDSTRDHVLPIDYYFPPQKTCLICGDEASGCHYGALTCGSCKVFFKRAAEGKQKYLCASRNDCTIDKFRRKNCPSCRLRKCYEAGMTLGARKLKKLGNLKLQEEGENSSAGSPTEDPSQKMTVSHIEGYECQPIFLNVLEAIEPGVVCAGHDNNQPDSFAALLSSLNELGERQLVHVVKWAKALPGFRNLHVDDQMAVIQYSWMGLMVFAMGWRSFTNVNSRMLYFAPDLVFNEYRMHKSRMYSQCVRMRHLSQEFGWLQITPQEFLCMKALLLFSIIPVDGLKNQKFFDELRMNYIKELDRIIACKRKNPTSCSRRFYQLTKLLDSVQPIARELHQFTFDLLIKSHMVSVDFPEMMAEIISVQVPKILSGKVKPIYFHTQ
# Experiment summary: L929 Androgen Receptor Functional Assay, Adenovirus Transduction
# Format: cell-based
# Condition label: L929, antagonist testing with R1881, 3000 nM
Label YES when inhibition at 3 µM is at or above 80%; anything below gets NO.

Compound | Assigned label
CC(C)SCC(C)(O)c1cc2cc([N+](=O)[O-])c(C(F)(F)F)cc2[nH]1 (stereo not drawn) | NO
COc1ccc(S(=O)(=O)CC(C)(O)c2cc3cc(Cl)c(C(F)(F)F)cc3n2S(C)(=O)=O)cc1 (stereo not drawn) | NO
CCCSCC(C)(O)c1cc2cc([N+](=O)[O-])c(C(F)(F)F)cc2[nH]1 (stereo not drawn) | NO
CC[S+]([O-])C[C@](C)(O)c1cc2cc([N+](=O)[O-])c(C(F)(F)F)cc2[nH]1 (stereo in doubt) | NO
CCC(O)(CSCC(F)(F)F)c1cc2cc([N+](=O)[O-])c(C(F)(F)F)cc2[nH]1 (stereo not drawn) | YES
CCCS(=O)(=O)CC(C)(O)c1cc2cc([N+](=O)[O-])c(C(F)(F)F)cc2[nH]1 (stereo not drawn) | YES
CC(O)(CSCc1ccccc1)c1cc2cc([N+](=O)[O-])c(C(F)(F)F)cc2[nH]1 (stereo not drawn) | NO
CCSCC(C)(O)c1cc2cc(Br)c(C(F)(F)F)cc2[nH]1 (stereo not drawn) | YES
